molecular target: NAMPT (Homo sapiens, UniProt P43490); construct: His6 (C); assay: NAMPT coupled enzyme activity assay (HTS coupled three-enzyme assay); settings: NAMPT activation, dose-response (FIG. 1B)
Sequence (P43490 whole entry): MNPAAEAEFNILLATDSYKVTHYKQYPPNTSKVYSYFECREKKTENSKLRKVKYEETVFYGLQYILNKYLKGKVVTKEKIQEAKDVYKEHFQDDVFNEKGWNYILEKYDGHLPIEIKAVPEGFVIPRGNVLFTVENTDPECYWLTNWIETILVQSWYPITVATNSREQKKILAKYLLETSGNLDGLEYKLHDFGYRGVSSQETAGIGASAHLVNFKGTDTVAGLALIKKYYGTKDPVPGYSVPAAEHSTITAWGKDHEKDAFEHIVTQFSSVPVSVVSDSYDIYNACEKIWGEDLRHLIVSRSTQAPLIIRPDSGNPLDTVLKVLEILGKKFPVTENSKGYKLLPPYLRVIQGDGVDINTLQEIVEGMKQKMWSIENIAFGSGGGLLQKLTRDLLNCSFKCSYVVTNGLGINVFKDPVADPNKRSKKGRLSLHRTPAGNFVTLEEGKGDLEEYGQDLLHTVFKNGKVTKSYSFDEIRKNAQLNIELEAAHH
This section presents molecules with their documented EC50 values.
Number only, in µM; omit the unit.

INSERT INTO results (molecule, quantity_measured, endpoint_unit, observed_measurement) VALUES
  ('CC(C)C1(CCN(Cc2ccc(N(C)C)cc2)C(=O)c2ccco2)CCOC(C)(C)C1 (centres unmarked)', 'EC50', 'µM', 3.41);

Query: // lookup EC50 for COc1ccc(CN(CCC2(C(C)C)CCOC(C)(C)C2)C(=O)c2ccco2)cc1 (centres unmarked)
Result: 4.05
